Would you kindly list IC50 for each of these compounds?
Tested on: 317291-083-R-J1-PDC complex spheroids, viability;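 also: spheroids exposed to compounds for one week before readout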
Assay: Anticancer human tumor 317291-083-R-J1-PDC patient-derived soft tissue sarcoma cell line growth inhibition [GQUAD]
Conditions: curve of first compound; second compound 0.0316 µM

A selection of reference data follows.
[[record]]
compound = "COc1cccc2c1C(=O)c1c(O)c3c(c(O)c1C2=O)CC(O)(C(=O)CO)CC3OC1CC(N)C(O)C(C)O1 (stereo not drawn) + Cc1[nH]c2ccc(F)cc2c1-c1nc2c3cccnc3c3ncccc3c2[nH]1"
systemname = "317291-083-R-J1-PDC complex spheroids, viability"
assaymetric = "IC50"
result = "81 nM"

[[record]]
compound = "O=C(c1cc(Cc2n[nH]c(=O)c3ccccc23)ccc1F)N1CCN(C(=O)C2CC2)CC1 + Cc1cnc(CNC(=O)c2c(=O)c3ccc(N4CCCN(C)CC4)nc3n3c2sc2ccccc23)cn1"
systemname = "317291-083-R-J1-PDC complex spheroids, viability"
assaymetric = "IC50"
result = "> 10000 nM"


We now examine a further compound.
What value of measured IC50 is listed for Cc1[nH]c2ccccc2c1CCNCc1ccc(/C=C/C(=O)NO)cc1 + Cc1cnc(CNC(=O)c2c(=O)c3ccc(N4CCCN(C)CC4)nc3n3c2sc2ccccc23)cn1 ?
54.2 nM

Values from PubChem BioAssay AID2060497
